molecular target: GSTP1-1 (Homo sapiens); construct: made in house; host or cells: E. coli XL-1 Blue; experiment: Kinetic inhibition studies with GSTP1 (Lineweaver-Burk, varied GSH or CDNB); type: biochemical; details: GSH as varied substrate, CDNB near-saturating; read-out: Ki GSH
Sequence (P09211 whole entry): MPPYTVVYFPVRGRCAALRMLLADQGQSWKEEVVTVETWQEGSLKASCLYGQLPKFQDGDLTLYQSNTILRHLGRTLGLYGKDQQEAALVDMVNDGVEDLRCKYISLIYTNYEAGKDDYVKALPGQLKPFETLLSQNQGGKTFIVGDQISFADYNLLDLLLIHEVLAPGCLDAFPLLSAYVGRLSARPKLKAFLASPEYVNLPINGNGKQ
Property: pKi
Lab note: report pKi as minus log10 of the concentration in molar units, number only.

Compound: Nc1nc2c(ncn2[C@H]2C[C@H](O)[C@@H](CO)O2)c(=S)[nH]1
pKi: 4.91

Incoming: For the compound shown here, Nc1nc(SSc2nc(N)nc3c2ncn3C2CC(O)C(CO)O2)c2ncn(C3CC(O)C(CO)O3)c2n1 (centres unmarked) , give the reported pKi.
Outgoing: 6.01
